assay: Liver microsomal metabolic stability assay; type: in vitro ADME; details: rat liver microsomes, NADPH, 37° C., 0-60 minutes; read-out: Rat microsomal metabolic half-life (t1/2)
readout kind: half-life at 1 µM
Write the numeric value and follow it with the unit.

Memo: C[C@H](CCCC(C)(C)O)[C@H]1CC[C@H]2[C@@H]3CC[C@H]4[C@H](O)[C@@H](O)CC[C@]4(C)[C@H]3CC[C@]12C [compound 204, 5α-cholest-3β,4α,25-triol] , reported half-life at 1 µM: 3.97 h

The compound C[C@H](CCCC(C)(C)O)[C@H]1CC[C@H]2[C@H]3[C@H](CC[C@]12C)[C@@]1(C)CC[C@H](O)C(=O)[C@@H]1CC3(F)F [compound 302] showed half-life at 1 µM equal to 0.979 h

// sample C[C@H](CCCC(C)(C)O)[C@H]1CC[C@H]2[C@@H]3CC[C@H]4[C@@H](O)[C@@H](O)CC[C@]4(C)[C@H]3CC[C@]12C [compound 198, 5α-Cholest-30,40,25-triol] , its half-life at 1 µM was 1.2 h

Entry C[C@H](CCCC(O)c1ccccc1OC(F)(F)F)[C@H]1CC[C@H]2[C@@H]3CC[C@H]4[C@@H](O)[C@@H](O)CC[C@]4(C)[C@H]3CC[C@]12C (some centres unmarked) [compound 317] — recorded half-life at 1 µM = 2.28 h

Recorded result, C[C@H](CCCC(C)(C)O)[C@H]1CC[C@H]2[C@@H]3C(=O)C[C@H]4C[C@@H](O)CC[C@]4(C)[C@H]3CC[C@]12C [compound 216, 3P,25-dihydroxy-5α-cholest-7-one] , half-life at 1 µM: 0.385 h
